- Assay Protocol: Cytotoxicity Assay (HCT116, CellTiter-Glo)
- Assay type: cell-based
- Experimental Context: human, HCT116 cells, 72 hours drug incubation, CellTiter-Glo luminescence; read-out: HCT116 cell cytotoxicity IC50
Measured Endpoint: IC50 at 72 h

Please review the following examples before continuing.
molecule="O=C(NCc1cccnc1)Nc1ccc2c(C(=O)N3CCC(N4CCCCC4)CC3)cn(Cc3ccccc3)c2c1 [Compound 68]" measured_endpoint="IC50 at 72 h" value_observed="≥ 100 nM"
molecule="O=C(NCc1cccnc1)Nc1ccc2c(c1)c(C(=O)NCCCN1CCCCC1)cn2Cc1ccccc1 [Compound 96]" measured_endpoint="IC50 at 72 h" value_observed="≥ 100 nM"
molecule="O=C(/C=C/c1ccc(-n2cc(CCN3CCCOCC3)c3ccccc32)cc1)NCc1cccnc1 [Compound 181]" measured_endpoint="IC50 at 72 h" value_observed="< 100 nM"

Please look at the following molecule next.
QUERY: Suppose we examine the molecule O=C(/C=C/c1ccc(-n2nc(C(=O)N3CCC(N4CCCC4)CC3)c3ccccc32)cc1)NCc1cccnc1 [Compound 168] ; what IC50 at 72 h value has been reported?
RESULT: < 100 nM
